target_under_test: NR2F6 (Homo sapiens, UniProt P10588)
Construct: expressed in transfected cells; also transient transfection
Sequence (P10588 whole entry): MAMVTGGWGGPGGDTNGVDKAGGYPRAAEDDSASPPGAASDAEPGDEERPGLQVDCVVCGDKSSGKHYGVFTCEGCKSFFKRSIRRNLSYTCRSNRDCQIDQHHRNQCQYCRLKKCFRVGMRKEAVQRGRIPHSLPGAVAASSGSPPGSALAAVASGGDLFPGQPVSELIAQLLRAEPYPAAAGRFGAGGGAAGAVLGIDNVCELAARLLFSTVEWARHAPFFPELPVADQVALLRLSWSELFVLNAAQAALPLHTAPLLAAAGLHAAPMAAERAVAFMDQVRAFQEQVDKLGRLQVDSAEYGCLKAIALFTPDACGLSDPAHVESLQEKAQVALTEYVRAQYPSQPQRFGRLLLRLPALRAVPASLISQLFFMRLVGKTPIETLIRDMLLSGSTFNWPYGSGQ
method_summary: NR2F6 agonist screening, Firefly signal cmpd/DMSO
Format: cell-based
conditions: Table 14; 40 uM
property_measured: Firefly F4, cmpd/DMSO (mean)

Cc1ccc(NC(=O)c2noc3c2CCCC3)cc1C [Compound C302] | 0.9

1: CCn1cc2c(n1)c(=O)n(Cc1ccccc1)c(=O)n2CC(=O)Nc1ccc(Br)cc1 [Compound L1]
2: Cc1ccc(NC(=O)c2noc3c2CC(C(C)(C)C)CC3)cc1C (stereo not drawn) [Compound C303]
Of 1 and 2 , whose reported Firefly F4, cmpd/DMSO (mean) is the larger number? API: response body contains the label of the selected item.
2
(2: 0.9, 1: 0.5)

a: Cc1cc(C)n2nc(CNS(=O)(=O)c3ccc(F)cc3)nc2n1 [Compound E12]
b: Cc1ccc(-c2nc3ccccc3c(=O)[nH]2)cc1 [Compound C3]
Of a and b , whose reported Firefly F4, cmpd/DMSO (mean) is the larger number? API: response body contains the label of the selected item.
b
